- TEST NAME: Cytotoxicity (CC50) IEC-6
- Assay type: cell-based
- CONDITION NOTES: rat, IEC-6 cells
RECORDED ENDPOINT: CC50

Task item: Return the recorded CC50 value; entry: CC(C)OC(=O)[C@H](C)NP(=O)(OC[C@H]1O[C@@H](n2ccc(=O)[nH]c2=S)C(C)(O)[C@H]1O)Oc1ccccc1 (stereo partly shown) [drawing 387]
Reply: > 200 µM

* * *

The entries below are paired with their reported CC50.
- TEST NAME: Cytotoxicity (CC50) Huh-7
- CONDITION NOTES: human, Huh-7 cells

Below are worked cases with known answers.
| COMPOUND | ENDPOINT RESULT |
| --- | --- |
| CC(C)OC(=O)[C@H](C)NP(=O)(OC[C@H]1O[C@@H](n2ccc(=O)[nH]c2=S)C(C)[C@H]1O)Oc1ccccc1 (stereo partly shown) | > 400 µM |
| CC(C)OC(=O)[C@H](C)NP(=O)(OC[C@H]1O[C@@H](n2ccc(=O)[nH]c2=S)C(C)(O)[C@H]1O)Oc1ccccc1 (stereo partly shown) [drawing 387] | > 400 µM |
| C#C[C@]1(COP(=O)(N[C@@H](C)C(=O)OC(C)C)Oc2ccccc2)O[C@@H](n2ccc(=O)[nH]c2=S)C(O)[C@H]1O (stereo partly shown) | > 400 µM |
| CC1(O)[C@@H](O)[C@@H](CO)O[C@H]1n1ccc(=O)[nH]c1=S (stereo partly shown) | > 100 µM |
| CC(C)OC(=O)[C@H](C)NP(=O)(OC[C@@]1(N=[N+]=[N-])O[C@@H](n2ccc(=S)[nH]c2=O)C(O)[C@H]1O)Oc1ccccc1 (stereo partly shown) | > 400 µM |

Task item: Return the recorded CC50 value; entry: CC(C)OC(=O)[C@H](C)N[P@@](=O)(OC[C@H]1O[C@@H](n2ccc(=O)[nH]c2=S)C(C)(O)[C@H]1O)Oc1ccccc1 (stereo partly shown)
Reply: > 400 µM

Task item: Return the recorded CC50 value; entry: CC(C)OC(=O)[C@H](C)N[P@](=O)(OC[C@H]1O[C@@H](n2ccc(=O)[nH]c2=S)C(C)(O)[C@H]1O)Oc1ccccc1 (stereo partly shown) [drawing 388]
Reply: 252 µM

Where these numbers come from: patent US12414961B2
